Source: patent US20150315211A1

MEASURED_ON: BCL-XLΔC (Homo sapiens, UniProt Q07817)
Sequence (Q07817 1-212 limits assumed, stated change not applied): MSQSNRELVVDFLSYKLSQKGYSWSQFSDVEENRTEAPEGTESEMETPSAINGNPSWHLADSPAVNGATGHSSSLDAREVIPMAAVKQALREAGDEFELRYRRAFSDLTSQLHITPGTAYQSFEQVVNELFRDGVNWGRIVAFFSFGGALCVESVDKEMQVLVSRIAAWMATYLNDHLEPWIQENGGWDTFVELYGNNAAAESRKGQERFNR
METHOD_DESCRIPTION: High-throughput competitive FP binding screen, FITC-BAD BH3/BCL-XLΔC interaction
PARTICULARS: FITC-BAD BH3/BCL-XLΔC interaction pair, competitive FP screen
Task for the reader: assign each of the following compounds its reported BCL-XL % Bound.
One number for each entry, in %.

Look up BCL-XL % Bound for the entries below, preserving their order.
1. CCn1c(-c2ccccc2)cnc1S
2. Cc1ccc(/C=C/C(=O)N2CCN(C(c3ccccc3)c3ccccc3)CC2)o1
3. CC1=C(C#N)C(=O)N(CCc2ccccc2)C(=O)/C1=C\c1ccc(-c2cccc(Cl)c2)o1
4. CCCCSC1=C(C#N)C(=O)NC(c2ccco2)S1 (stereo not shown)
5. COc1ccc(C(=O)COC(=O)c2c3c(nc4ccccc24)CCN(C)C3)cc1
6. O=C(/C=C/c1ccco1)NC(=S)Nc1ccccc1C(F)(F)F
7. COC(=O)c1ccc(C(c2cc3c(cc2O)OCO3)N2CCN(c3ccccc3)CC2)cc1 (stereo not shown)

Result:
[105.8, 103.2, 78.77, 92.91, 88.79, 99.25, 96.46]

Look up BCL-XL % Bound for the entries below, preserving their order.
1. CCOc1ccc2c(c1)C(C)=CC(C)(C)N2C(=O)CSc1nnc(C2CC2)n1C
2. Cc1nn2c(S)nnc2nc1O
3. O=C1/C(=C\C=C\c2ccco2)SC(=S)N1NCc1ccccc1O
4. Oc1ccc(SSc2ccc(O)cc2)cc1

Result:
95.37
102.7
95.8
104.4

----------
MEASURED_ON: BCL-XLΔC (Homo sapiens, UniProt Q07817)
METHOD_DESCRIPTION: High-throughput competitive FP binding screen, FITC-BAD BH3/BCL-XLΔC interaction
PARTICULARS: FITC-BAD BH3/BCL-XLΔC interaction pair, competitive FP screen
READOUT_LABEL: BCL-XL % Bound

Example entries begin here.
- COMPOUND: "CCOC(=O)c1c(C)oc2c1c1c(c3ccccc32)OCN(C2CC(C)(C)NC(C)(C)C2)C1"
  BCL-XL % Bound: "85%"
- COMPOUND: "N#CC1=C(c2ccc(Cl)cc2)COC1=O"
  BCL-XL % Bound: "88.12%"

Look up BCL-XL % Bound for the entries below, preserving their order.
1. O=C1NC(=O)/C(=C/c2ccc(-c3ccc(S(=O)(=O)N4CCOCC4)cc3)o2)S1
2. CC1CCC(C(C)C)C(OC(=O)COC(=O)c2ccc(O)cc2)C1 (stereo not drawn)
3. NNCc1c(Cl)cccc1Cl
4. COc1ccc(N(C)C(=S)Nc2ccc3nc(-c4ccco4)c(-c4ccco4)nc3c2)cc1 [drawing 205]
5. O=c1cc(-c2ccccc2)oc2cc(O)c(O)c(O)c12 [Baicailen, reference compound]
6. O=C1c2ccccc2-c2onc3ccc(Oc4c(F)c(F)c(F)c(F)c4F)c1c23

Result:
1. 107.9%
2. 106.5%
3. 103.5%
4. 81.17%
5. 104.2%
6. 86.73%

Look up BCL-XL % Bound for the entries below, preserving their order.
1. O=C(NN1C(=O)S/C(=C/C=C/c2ccco2)C1=O)c1ccccc1O
2. O=c1c(O)c(-c2cc(O)c(O)c(O)c2)oc2cc(O)cc(O)c12 [drawing 14]
3. Oc1c(Cl)cc(Cl)cc1Sc1cc(Cl)cc(Cl)c1Cl
4. CC(C)c1ccc(C2=CC(=O)C=CC2=O)cc1
5. CC1CCN(C2=NN3C(=N)C(Cc4ccc(SCc5ccco5)o4)C(=O)N=C3S2)CC1 (stereo not drawn)
6. CCOc1cc(C(Nc2cccnc2)c2ccc3cccnc3c2O)ccc1O (stereo not drawn) [drawing 145]
7. CC1=C(C#N)C(=O)N(CCc2ccccc2)C(=O)/C1=C/c1ccc(-c2ccc(S(N)(=O)=O)cc2)o1
8. N#CC1=C(S)NC(=O)C(C#N)C12CCCCC2 (stereo not drawn)

Result:
1: 95.8%; 2: 102.4%; 3: 100.4%; 4: 89.1%; 5: 84.68%; 6: 108.4%; 7: 97.35%; 8: 107.0%

----------
MEASURED_ON: UniProtKB Q07820
METHOD_DESCRIPTION: High-throughput competitive FP binding screen, FITC-MCL-1 SAHB/MCL-1ΔNΔC interaction
Parameters: the C-terminal alpha-helix was deleted from each of these constructs; GST (N, cleaved yes); made in house
READOUT_LABEL: MCL-1% Bound (%)
One number for each entry, in %.

Example entries begin here.
- COMPOUND: "CCN1C(=O)C(=Cc2cccn2C)C(=O)N(CC)C1=S"
  QUANTITY_UNIT: "%"
  DATA_VALUE: 52.01
- COMPOUND: "O=C1NC(=O)C(=Cc2ccc(Sc3ccc(Cl)cc3)o2)C(=O)N1"
  QUANTITY_UNIT: "%"
  DATA_VALUE: 39.96
- COMPOUND: "N#C/C(=C\\c1ccc(O)c(O)c1)C(N)=S [Tyrphostin 47, reference compound]"
  QUANTITY_UNIT: "%"
  DATA_VALUE: 34.55
- COMPOUND: "CC1=C(O)C(=O)C=C2C1=CC=C1[C@@]2(C)CC[C@@]2(C)[C@@H]3C[C@](C)(C(=O)O)CC[C@]3(C)CC[C@]12C [Celastrol, reference compound]"
  QUANTITY_UNIT: "%"
  DATA_VALUE: 32.9
- COMPOUND: "Oc1c(Cl)cc(Cl)c(Cl)c1Cc1c(O)c(Cl)cc(Cl)c1Cl [drawing 274]"
  QUANTITY_UNIT: "%"
  DATA_VALUE: 41.01

Look up MCL-1% Bound for the entries below, preserving their order.
1. Nc1c(C(=O)NCc2ccco2)c2nc3ccccc3nc2n1CCc1ccccc1F
2. C=CCN1C(=O)/C(=C\c2ccc(N3CCOCC3)cc2C)C(=O)NC1=S
3. CSc1ncc(/C=C2/C(=O)NC(=O)N(C3CCCCC3)C2=O)cn1
4. CCOc1cc(C=C2C(=O)N(C)C(=S)N(C)C2=O)ccc1OC(C)C(=O)O (stereo not shown)

Result:
[6.6, 33.01, 46.42, 41.99]

// MCL-1% Bound lookup, compound = N#C/C(=C\c1ccc(O)c(O)c1)C(N)=S [drawing 231] , result: 34.55

----------
Task for the reader: assign each of the following compounds its reported MCL-1% Bound.
MEASURED_ON: MCL-1ΔNΔC (Homo sapiens)
Sequence (Q07820 172-320 limits assumed, stated change not applied): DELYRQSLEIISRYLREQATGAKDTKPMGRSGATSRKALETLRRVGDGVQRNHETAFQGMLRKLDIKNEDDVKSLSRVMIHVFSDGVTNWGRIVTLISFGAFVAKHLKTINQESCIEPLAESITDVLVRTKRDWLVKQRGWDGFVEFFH
METHOD_DESCRIPTION: High-throughput competitive FP binding screen, FITC-MCL-1 SAHB/MCL-1ΔNΔC interaction
Parameters: the C-terminal alpha-helix was deleted from each of these constructs; GST (N, cleaved yes); made in house
PARTICULARS: FITC-MCL-1 SAHB/MCL-1ΔNΔC interaction pair, competitive FP screen
One number for each entry, in %.

- COMPOUND: "O=C(CSc1nnc(-c2ccoc2)c(-c2ccoc2)n1)c1ccc(-c2ccccc2)cc1"
  MCL-1% Bound [%]: 45.38
- COMPOUND: "CC1=C(C#N)C(=O)N=C(O)/C1=C\\c1ccc(-c2ccc(S(N)(=O)=O)cc2)o1 [drawing 84]"
  MCL-1% Bound [%]: 21.8
- COMPOUND: "CCCCSC1=C(C#N)C(=O)NC(c2ccco2)S1 (centres unmarked)"
  MCL-1% Bound [%]: 18.96
- COMPOUND: "O=C1/C(=C\\C=C\\c2ccco2)SC(=S)N1NCc1ccccc1O"
  MCL-1% Bound [%]: 19.8
- COMPOUND: "Cc1cccc(C(=O)Oc2ccc3oc(=O)sc3c2)c1"
  MCL-1% Bound [%]: 44.36
- COMPOUND: "Cc1cc(C)c2nc(N3CCCN(C(=O)c4ccco4)CC3)c(C#N)cc2c1"
  MCL-1% Bound [%]: 11.4
- COMPOUND: "O=C1C2=C(C(=O)c3ccccc31)C(c1ccccc1O)c1sc(=O)[nH]c1S2 (centres unmarked)"
  MCL-1% Bound [%]: 30.41
- COMPOUND: "CCCCn1c2ccccc2c2nnc(S)nc21"
  MCL-1% Bound [%]: 44.24

Look up MCL-1% Bound for the entries below, preserving their order.
1. Cc1ccc(C)n1-c1cc(Cl)ccc1C(=O)O
2. O=C1C=Cc2ccc3c4c(ccc1c24)C=CC3=O
3. O=C1c2ccccc2-c2onc3ccc(Oc4c(F)c(F)c(F)c(F)c4F)c1c23

Result:
1. −3.914
2. 26.7
3. 40.76

----------
Task for the reader: assign each of the following molecules its reported MCL-1% Bound.
MEASURED_ON: MCL-1ΔNΔC (Homo sapiens)
METHOD_DESCRIPTION: High-throughput competitive FP binding screen, FITC-MCL-1 SAHB/MCL-1ΔNΔC interaction
Design: the C-terminal alpha-helix was deleted from each of these constructs; GST (N, cleaved yes); made in house
PARTICULARS: FITC-MCL-1 SAHB/MCL-1ΔNΔC interaction pair, competitive FP screen
Answers are plain numbers, in %.

Example entries begin here.
- MOLECULE: "O=C(O)C(Cc1ccccc1)N1C(=O)/C(=C\\c2ccco2)SC1=S (stereo not shown)"
  READOUT_LABEL: "MCL-1% Bound"
  QUANTITY_UNIT: "%"
  DATA_VALUE: 21.29
- MOLECULE: "O=C(OCC1O[C@H](OC(=O)c2cc(O)c(O)c(OC(=O)c3cc(O)c(O)c(O)c3)c2)[C@H](OC(=O)c2cc(O)c(O)c(OC(=O)c3cc(O)c(O)c(O)c3)c2)[C@@H](OC(=O)c2cc(O)c(O)c(OC(=O)c3cc(O)c(O)c(O)c3)c2)[C@@H]1OC(=O)c1cc(O)c(O)c(OC(=O)c2cc(O)c(O)c(O)c2)c1)c1cc(O)c(O)c(OC(=O)c2cc(O)c(O)c(O)c2)c1 (stereo partly shown) [drawing 25]"
  READOUT_LABEL: "MCL-1% Bound"
  QUANTITY_UNIT: "%"
  DATA_VALUE: 15.94

Look up MCL-1% Bound for the entries below, preserving their order.
1. O=C(O)c1cccc(-c2ccc(/C=C3\Sc4ccccc4C3=O)o2)c1
2. CN(C)c1ccc2cccc(O)c2n1
3. CCN(CC)S(=O)(=O)c1ccc(-c2ccc(/C=N/N=C3\NC(=O)C(CC(=O)Nc4ccccc4)S3)o2)cc1 (stereo not shown)

Result:
31.17
41.22
44.37

Look up MCL-1% Bound for the entries below, preserving their order.
1. O=c1c(O)cccc2cc(O)c(O)c(O)c12
2. CCOC(=O)c1ccc(-c2ccc(/C=C3\S/C(=N\N=C4/C(=O)Nc5ccccc54)NC3=O)o2)cc1

Result:
["−19.81", 13.28]
